Tested on: E. coli MG1655
Assay: MIC, broth microdilution (CLSI)
Format: cell-based
Details: Escherichia coli
Description: II. Materials and Methods for Biological Experiments S. aureus ATCC 29213 and E. coli MG1655 were obtained from the American Type Culture Collection (ATCC). E. coli BW25113 and E. coli JW5503 were obtained from the Keio Collection. AR-bank strains were obtained from the Centers for Disease Control and Prevention and FDA Antibiotic Resistance Isolate Bank. Antimicrobial susceptibility tests […] NH3: m/z 391.2 → 171.0. […] All compounds evaluated in biological assays were ≥95% pure.
measurement-name: MIC
Please make sure the unit comes right after the number.

Field: example entries. Status: answers known.
compound | measurement-name | observed-result
Cc1c(CN(C)C(=O)/C=C/c2cnc3c(c2)CC2(CCC(N)CC2)C(=O)N3)oc2ccccc12 (racemic) [(±)-5] | MIC | 16 µg/mL
Cc1c(CN(C)C(=O)/C=C/c2cnc3c(c2)CCCC(=O)N3)oc2ccccc12 [compound 10] | MIC | 8 µg/mL
Cc1c(CN(C)C(=O)/C=C/c2cnc3c(c2)CCC(CCN)C(=O)N3)oc2ccccc12 (racemic) [(±)-9] | MIC | 32 µg/mL

Param item = Cc1c(CN(C)C(=O)/C=C/c2cnc3c(c2)CC2(CC(CN)C2)C(=O)N3)oc2ccccc12 (racemic) [(±)-4] ; retrieve measured MIC.
16 µg/mL

Param item = Cc1c(CN(C)C(=O)/C=C/c2cnc3c(c2)CCC(CN)C(=O)N3)oc2ccccc12 (racemic) [(±)-8] ; retrieve measured MIC.
8 µg/mL

Param item = Cc1c(CN(C)C(=O)/C=C/c2cnc3c(c2)CCC(N)C(=O)N3)oc2ccccc12 (racemic) [(±)-7] ; retrieve measured MIC.
4 µg/mL

###

Observed MIC, system K. pneumoniae BAA-2472.
Numeric answer only, unit µg/mL assumed.

compound | assay-target | MIC / µg/mL
Cc1c(CN(C)C(=O)/C=C/c2cnc3c(c2)CC2(CNC2)C(=O)N3)oc2ccccc12 [compound 2] | K. pneumoniae BAA-2472 | 8

Provide the documented MIC with K. pneumoniae BAA-2472 as the system for Cc1c(CN(C)C(=O)/C=C/c2cnc3c(c2)CCCC(=O)N3)oc2ccccc12 [compound 10]
16

###

Biological target: E. coli FabI (Escherichia coli)
Construct: His(6) with TEV site (cleaved yes)
Sequence (P0AEK4 whole entry): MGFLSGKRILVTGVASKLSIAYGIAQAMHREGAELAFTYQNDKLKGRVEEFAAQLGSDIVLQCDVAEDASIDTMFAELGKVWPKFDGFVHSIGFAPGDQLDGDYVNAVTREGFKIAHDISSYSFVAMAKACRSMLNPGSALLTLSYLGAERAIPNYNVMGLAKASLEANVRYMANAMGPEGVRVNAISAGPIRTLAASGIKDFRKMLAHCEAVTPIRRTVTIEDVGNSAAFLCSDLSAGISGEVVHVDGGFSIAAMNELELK
Assay: In vitro FabI enzymatic inhibition assay
Conditions: EcFabI; Morrison's quadratic fit; 5 nM enzyme; read-out: Ki app
measurement-name: Ki (µM)
Numeric answer only, unit µM assumed.

Field: example entries. Status: answers known.
molecule | measurement-name | unit | observed-result
Cc1c(CN(C)C(=O)/C=C/c2cnc3c(c2)CCCC(=O)N3)oc2ccccc12 | Ki | µM | 0.131
Cc1c(CN(C)C(=O)/C=C/c2cnc3c(c2)CCC(=O)N3)oc2ccccc12 [Debio-1452, reference compound] | Ki | µM | 0.097

Switching to the query record.
Param item = Cc1c(CN(C)C(=O)/C=C/c2cnc3c(c2)CC(N)C(=O)N3)oc2ccccc12 (stereo not drawn) [Debio-1452-NH3, reference compound] ; retrieve measured Ki.
0.009

###

Assay: in vivo
Settings: BALB/c, mouse, iv
measurement-name: MTD (mg/kg)
Numeric answer only, unit mg/kg assumed.

Param item = Cc1c(CN(C)C(=O)/C=C/c2cnc3c(c2)CC[C@H](N)C(=O)N3)oc2ccccc12 [fabimycin] ; retrieve measured MTD.
100

###

Assay: Pharmacokinetic assessment in neutropenic A. baumannii-infected mice
Type: in vivo, mouse
Settings: female, BALB/c, mouse, plasma, iv, 75 mg/kg, plasma, 75 mg/kg, single dose, read-out: Cmax
Description: Pharmacokinetic assessment The protocol to assess fabimycin’s pharmacokinetic properties in A. baumanii-infected mice (strain: AR-0088) was approved by the IACUC at Pharmacology Discovery Services, Taiwan, Ltd. (protocol mumber: PK001-09212018). In this study, neutropenic female BALB/c mice 7-8 weeks in age from BioLASCO Taiwan (AAALAC-certified Charles River Licensee) weighing 18 ± 2 grams were used.10 All animals were specific pathogen free. […]
measurement-name: Cmax (ng/mL)
Numeric answer only, unit ng/mL assumed.

Param item = Cc1c(CN(C)C(=O)/C=C/c2cnc3c(c2)CC[C@H](N)C(=O)N3)oc2ccccc12 [fabimycin] ; retrieve measured Cmax.
34600

###

Molecular target: A. baumannii FabI (Acinetobacter baumannii)
Sequence (D0CAD5 entry or part of it): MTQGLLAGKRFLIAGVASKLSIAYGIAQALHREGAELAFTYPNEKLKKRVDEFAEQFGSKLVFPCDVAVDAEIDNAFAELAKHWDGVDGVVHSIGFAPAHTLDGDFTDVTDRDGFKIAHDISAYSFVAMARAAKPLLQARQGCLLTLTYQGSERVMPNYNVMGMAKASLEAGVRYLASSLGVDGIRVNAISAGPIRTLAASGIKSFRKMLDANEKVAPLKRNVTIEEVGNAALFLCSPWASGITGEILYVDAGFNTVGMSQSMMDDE
measurement-name: Ki
Please make sure the unit comes right after the number.

Field: example entries. Status: answers known.
compound | Ki
Cc1c(CN(C)C(=O)/C=C/c2cnc3c(c2)CC[C@H](NC(=O)OC(C)(C)C)C(=O)N3)oc2ccccc12 [(S)-11] | 947 nM
Cc1c(CN(C)C(=O)/C=C/c2cnc3c(c2)CC(N)C(=O)N3)oc2ccccc12 (stereo not drawn) [Debio-1452-NH3, reference compound] | 13 nM
Cc1c(CN(C)C(=O)/C=C/c2cnc3c(c2)CCCC(=O)N3)oc2ccccc12 | 487 nM
Cc1c(CN(C)C(=O)/C=C/c2cnc3c(c2)CC[C@H](N)C(=O)N3)oc2ccccc12 | 17 nM
Cc1c(CN(C)C(=O)/C=C/c2cnc3c(c2)CCC(=O)N3)oc2ccccc12 [Debio-1452, reference compound] | 431 nM

Provide the documented Ki with A. baumannii FabI (Acinetobacter baumannii) as the system for Cc1c(CN(C)C(=O)/C=C/c2cnc3c(c2)CC[C@@H](N)C(=O)N3)oc2ccccc12 [(R)-7]
109 nM

###

Assay: Pharmacokinetic assessment in neutropenic A. baumannii-infected mice
Type: in vivo, mouse
Details: female, BALB/c, mouse; plasma; 100 mg/kg, IV, single dose
measurement-name: AUC(0-t) (ng·h/mL)
Numeric answer only, unit ng·h/mL assumed.

Param item = "Cc1c(CN(C)C(=O)/C=C/c2cnc3c(c2)CC[C@H](N)C(=O)N3)oc2ccccc12" ; retrieve measured AUC(0-t).
69800

###

Assay: Pharmacokinetic assessment in neutropenic A. baumannii-infected mice
Format: in vivo, mouse
Details: female, BALB/c, mouse; thigh; 100 mg/kg, IV, single dose
Source text: Pharmacokinetic assessment The protocol to assess fabimycin’s pharmacokinetic properties in A. baumanii-infected mice (strain: AR-0088) was approved by the IACUC at Pharmacology Discovery Services, Taiwan, Ltd. (protocol mumber: PK001-09212018). In this study, neutropenic female BALB/c mice 7-8 weeks in age from BioLASCO Taiwan (AAALAC-certified Charles River Licensee) weighing 18 ± 2 grams were used.10 All animals were specific pathogen free. […]
measurement-name: clearance (mL/min/kg)
Numeric answer only, unit mL/min/kg assumed.

Param item = "Cc1c(CN(C)C(=O)/C=C/c2cnc3c(c2)CC[C@H](N)C(=O)N3)oc2ccccc12" ; retrieve measured clearance.
14.7

###

Test system: K. pneumoniae BAA-2472
# reported MIC; entries follow
Numeric answer only, unit µg/mL assumed.

Field: example entries. Status: answers known.
compound | observed-result
Cc1c(CN(C)C(=O)/C=C/c2cnc3c(c2)CC2(CC(N)C2)C(=O)N3)oc2ccccc12 (racemic) [(±)-3] | 8
Cc1c(CN(C)C(=O)/C=C/c2cnc3c(c2)CC(N)C(=O)N3)oc2ccccc12 (stereo not shown) [Debio-1452-NH3, reference compound] | 16
Cc1c(CN(C)C(=O)/C=C/c2cnc3c(c2)CC[C@H](N)C(=O)N3)oc2ccccc12 | 4
Cc1c(CN(C)C(=O)/C=C/c2cnc3c(c2)CCC(CN)C(=O)N3)oc2ccccc12 (racemic) [(±)-8] | 32
Cc1c(CN(C)C(=O)/C=C/c2cnc3c(c2)CC[C@H](NC(=O)OC(C)(C)C)C(=O)N3)oc2ccccc12 [(S)-11] | 32

Provide the documented MIC with K. pneumoniae BAA-2472 as the system for Cc1c(CN(C)C(=O)/C=C/c2cnc3c(c2)CCC(N)C(=O)N3)oc2ccccc12 (racemic) [(±)-7]
8

###

Test system: K. pneumoniae AR-0560
Test: MIC, broth microdilution (CLSI)
Assay type: cell-based
Settings: Klebsiella pneumoniae, AR0560; K. pneumoniae AR-0560 clinical isolate
measurement-name: MIC (µg/mL)
Numeric answer only, unit µg/mL assumed.

Field: example entries. Status: answers known.
molecule | assay-target | unit | MIC
Cc1c(CN(C)C(=O)/C=C/c2cnc3c(c2)CC2(CC(N)C2)C(=O)N3)oc2ccccc12 (racemic) [(±)-3] | K. pneumoniae AR-0560 | µg/mL | 8
Cc1c(CN(C)C(=O)/C=C/c2cnc3c(c2)CC[C@H](NC(=O)OC(C)(C)C)C(=O)N3)oc2ccccc12 [(S)-11] | K. pneumoniae AR-0560 | µg/mL | 32
Cc1c(CN(C)C(=O)/C=C/c2cnc3c(c2)CC[C@H](N)C(=O)N3)oc2ccccc12 | K. pneumoniae AR-0560 | µg/mL | 4
Cc1c(CN(C)C(=O)/C=C/c2cnc3c(c2)CC2(CNC2)C(=O)N3)oc2ccccc12 | K. pneumoniae AR-0560 | µg/mL | 16

Param item = Cc1c(CN(C)C(=O)/C=C/c2cnc3c(c2)CC(N)C(=O)N3)oc2ccccc12 (stereo not shown) [Debio-1452-NH3, reference compound] ; retrieve measured MIC.
32

Data origin: paper PMC9413440
